- tested_system: Receptor tyrosine-protein kinase erbB-4 (Homo sapiens) (UniProt Q15303);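 further: values are averaged percent inhibition of ERBB4 kinase activity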
- Sequence (Q15303 whole entry): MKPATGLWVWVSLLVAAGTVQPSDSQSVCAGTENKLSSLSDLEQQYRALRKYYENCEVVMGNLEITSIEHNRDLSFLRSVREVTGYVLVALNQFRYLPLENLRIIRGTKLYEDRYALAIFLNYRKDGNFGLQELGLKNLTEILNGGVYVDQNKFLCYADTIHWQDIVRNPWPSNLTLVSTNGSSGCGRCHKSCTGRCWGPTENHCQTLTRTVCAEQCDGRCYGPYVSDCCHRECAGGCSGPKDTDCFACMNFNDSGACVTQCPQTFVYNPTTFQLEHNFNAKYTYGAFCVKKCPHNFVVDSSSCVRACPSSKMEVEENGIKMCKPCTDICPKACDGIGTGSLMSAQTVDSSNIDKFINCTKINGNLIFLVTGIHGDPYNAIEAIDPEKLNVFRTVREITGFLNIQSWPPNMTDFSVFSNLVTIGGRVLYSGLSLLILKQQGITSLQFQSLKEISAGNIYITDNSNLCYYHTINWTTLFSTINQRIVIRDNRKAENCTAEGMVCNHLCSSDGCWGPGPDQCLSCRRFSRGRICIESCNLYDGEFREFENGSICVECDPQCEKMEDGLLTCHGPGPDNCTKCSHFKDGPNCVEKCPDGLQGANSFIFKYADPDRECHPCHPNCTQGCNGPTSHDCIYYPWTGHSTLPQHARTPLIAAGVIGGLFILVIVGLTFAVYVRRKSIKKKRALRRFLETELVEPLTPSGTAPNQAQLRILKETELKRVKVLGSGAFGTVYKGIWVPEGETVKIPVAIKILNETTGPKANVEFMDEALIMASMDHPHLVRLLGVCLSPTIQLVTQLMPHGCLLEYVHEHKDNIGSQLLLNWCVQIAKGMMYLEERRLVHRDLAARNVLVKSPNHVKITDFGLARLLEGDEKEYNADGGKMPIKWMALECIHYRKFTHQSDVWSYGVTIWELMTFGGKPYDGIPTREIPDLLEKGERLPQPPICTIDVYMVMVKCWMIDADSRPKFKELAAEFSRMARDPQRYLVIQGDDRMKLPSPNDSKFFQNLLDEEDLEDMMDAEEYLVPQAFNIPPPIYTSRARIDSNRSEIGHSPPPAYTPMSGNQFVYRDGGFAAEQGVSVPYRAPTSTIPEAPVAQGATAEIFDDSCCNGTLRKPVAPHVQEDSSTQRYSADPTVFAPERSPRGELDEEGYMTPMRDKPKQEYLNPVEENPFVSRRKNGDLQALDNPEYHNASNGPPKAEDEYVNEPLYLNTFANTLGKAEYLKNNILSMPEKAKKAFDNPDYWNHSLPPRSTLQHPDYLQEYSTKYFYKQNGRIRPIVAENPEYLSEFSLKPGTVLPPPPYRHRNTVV
- reported_conditions: at 0.1 µM
# label = Fulfilled if inhibition >= 7% else Not fulfilled

Solved cases (3 shown):
* CNC(=O)c1cc(-c2ccc(F)cc2)cc(-c2ccc(S(=O)(=O)N3CCCC3)cc2)c1N | Not fulfilled
* COc1cc(N2CCN(C(C)C)CC2)ccc1Nc1nc(Nc2ccc(F)cc2C(N)=O)c2cc[nH]c2n1 | Fulfilled
* Fc1ccc(-c2nn3ncccc3c2-c2ccnc(Nc3ccc4c(c3)OCCO4)n2)cc1 | Fulfilled

# check: inhibition of `COc1cccc(-n2ncc3c(N/N=C/c4ccc(F)cc4)ncnc32)c1` is greater than or equal to 7%
Fulfilled

Check this compound for inhibition at or above 7%: `[O-][S+]1CCN(Cc2ccc(-c3ccc4ncnc(Nc5ccc(OCc6cccc(F)c6)c(Cl)c5)c4c3)o2)CC1`
Fulfilled

Can `COC(=O)Nc1nc2ccc(Oc3ccc(NC(=O)Nc4cccc(Cl)c4)cc3)cc2[nH]1` be said to have inhibition at or above 7%?
Not fulfilled

API: above_or_equal(metric=inhibition, cutoff=7%) for item `CCn1c(-c2nonc2N)nc2c(C#CC(C)(C)O)nc(OC[C@H](N)c3ccccc3)cc21`
Not fulfilled

The measured values listed here are drawn from ChEMBL document CHEMBL1961873.
